Target: T1, human GPC3 on CHO-K1-human GPC3 cells (clone CHOK1-hGPC3.2B5) (human, UniProt P51654 25-554)
T1 construct: whole, on cells; Stably transfected CHO-K1 clone 2B5
Experiment: FACS on CHOK1-hGPC3.2B5 cells;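 also: flow cytometry binding of chimeric antibodies to the cells, read out as mean fluorescence intensity, with the half-maximal concentration derived by curve fitting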
Catalogue of binders with associated EC50
Answer in nM, number only, no unit symbol.

F2.154.1 human-murine chimeric antibody (antibody, human IgG1, kappa, V domains shown) VH: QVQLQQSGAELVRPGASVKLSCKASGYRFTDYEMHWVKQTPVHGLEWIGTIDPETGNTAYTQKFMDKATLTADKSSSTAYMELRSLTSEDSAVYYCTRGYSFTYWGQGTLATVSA VL: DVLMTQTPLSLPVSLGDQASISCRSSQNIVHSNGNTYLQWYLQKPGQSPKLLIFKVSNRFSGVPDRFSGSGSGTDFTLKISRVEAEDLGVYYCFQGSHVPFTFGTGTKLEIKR    1.14

Please find the next binder below.
Look up EC50 for this binder: F1.57.21 human-murine chimeric antibody (antibody, human IgG1, kappa, V domains shown) VH: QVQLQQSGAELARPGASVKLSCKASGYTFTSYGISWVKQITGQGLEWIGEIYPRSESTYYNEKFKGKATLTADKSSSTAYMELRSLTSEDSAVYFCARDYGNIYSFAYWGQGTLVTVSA VL: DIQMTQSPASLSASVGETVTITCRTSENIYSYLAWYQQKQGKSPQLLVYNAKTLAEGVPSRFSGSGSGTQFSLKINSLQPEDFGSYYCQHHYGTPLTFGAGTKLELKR
1.36

Source listed as patent US20260116991A1.
